target: recombinant human Lp-PLA2 (Homo sapiens, UniProt Q13093); experiment: Recombinant human Lp-PLA2 assay (rhLp-PLA2, PED6 assay); format: biochemical; conditions: lower bounds; read-out: pIC50 values in the PED6 assay (converted)
Sequence (Q13093 22-441): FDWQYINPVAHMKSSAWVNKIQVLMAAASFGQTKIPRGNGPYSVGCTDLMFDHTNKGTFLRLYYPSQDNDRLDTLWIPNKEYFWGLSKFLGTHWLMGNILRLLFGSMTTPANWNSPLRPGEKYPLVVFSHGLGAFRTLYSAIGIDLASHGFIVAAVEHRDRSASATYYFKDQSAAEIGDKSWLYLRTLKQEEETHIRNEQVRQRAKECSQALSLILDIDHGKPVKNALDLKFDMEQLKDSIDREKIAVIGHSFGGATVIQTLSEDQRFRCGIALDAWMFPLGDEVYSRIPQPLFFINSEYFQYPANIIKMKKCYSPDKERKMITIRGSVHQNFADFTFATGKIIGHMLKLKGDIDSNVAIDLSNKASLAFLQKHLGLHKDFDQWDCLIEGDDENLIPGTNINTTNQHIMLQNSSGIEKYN
Property: IC50; scope: individual compounds

The cases that follow already have their IC50 on record.
compound_structure_string	measurement_target	result
[2H]C1([2H])n2c(cc(OCc3cccc(F)c3F)nc2=O)N(C)C1(C)C	recombinant human Lp-PLA2 (Homo sapiens, UniProt Q13093)	≤ 10 nM
C[C@H]1Cn2c(cc(OCc3ccc(F)c(F)c3)nc2=O)N1C	recombinant human Lp-PLA2 (Homo sapiens, UniProt Q13093)	≤ 10 nM
CN1c2cc(OCc3ccc(Oc4cnc(C(F)(F)F)nc4)c(F)c3)nc(=O)n2CC1(C)C	recombinant human Lp-PLA2 (Homo sapiens, UniProt Q13093)	≤ 1 nM
CC1(C)Cn2c(cc(OCc3ccc(Oc4cnc(C(F)(F)F)nc4)c(F)c3)nc2=O)N1	recombinant human Lp-PLA2 (Homo sapiens, UniProt Q13093)	≤ 1 nM
C[C@H]1Cn2c(cc(OCc3ccc(Oc4cnc(C(F)(F)F)nc4)c(F)c3)nc2=O)N1C	recombinant human Lp-PLA2 (Homo sapiens, UniProt Q13093)	≤ 10 nM

Please give the measured IC50 for this compound: `CC(C)N1c2cc(OCc3cc(F)cc(F)c3)nc(=O)n2CC1(C)C`
≤ 1 nM

Follow-up entry: `CN1c2cc(OCc3cc(F)c(F)c(F)c3)nc(=O)n2CC1(C)C`
≤ 10 nM

Follow-up item: `[2H]C([2H])(Oc1cc2n(c(=O)n1)CC(C)(C)N2C(C)C)c1cccc(F)c1F`
≤ 1 nM
